# credit: patent US8642612B2

# TGT: rat α3β4 nAChRs (Rattus norvegicus, UniProt P04757+P12392)
# Construct: expressed in transfected cells; the efflux text says only stably transfected cells
# METHOD SUMMARY: [3H]epibatidine competition binding, rat α3β4 nAChRs expressed in HEK cells
# PROTOCOL CONDITIONS: example tables; species not given; read-out: Equilibrium binding affinity (Ki, nM) α3β4
Rule: measured Ki below 20000 nM gets Yes; anything equal to or greater than 20000 nM gets No.

Look over these answered cases.
| COMPOUND | CLASS NAME |
| --- | --- |
| CN1CCC[C@H]1COc1cncc(C#CCCCCCCCCO)c1 [ZW-93] | No |
| C#Cc1cncc(OC[C@@H]2CCCN2C)c1 [ZW-87] | Yes |
| Cc1cc2n(c(=O)c1)CC1CNCC2C1 (stereo not shown) [SKC-2-150] | Yes |
| FCCCCC#Cc1cncc(OC[C@@H]2CCCN2)c1 [ZW-102] | Yes |
| CN1CCC[C@H]1COc1cncc(C#CCO)c1 [ZW-89] | No |
| FCCCCC#Cc1cncc(OC[C@@H]2CCN2)c1 [ZW-104] | Yes |

Strictly below 20000 nM in Ki? CN1CCC[C@H]1COc1cncc(C#CCCCCF)c1 [ZW-110] No

Please do the same for CCCCC#Cc1cncc(OC[C@@H]2CCCN2C)c1 [ZW-100] as well. No

Try this compound too: O=c1cc(CO)cc2n1CC1CNCC2C1 (stereo not shown) [SKC-2-203] Yes

Next compound: CN1CCC[C@H]1COc1cncc(C#Cc2ccccc2)c1 [ZW-98] Yes

* * *

# TGT: rat α3β4 nAChRs (Rattus norvegicus, UniProt P04757+P12392)
# Construct: expressed in transfected cells; the efflux text says only stably transfected cells
# METHOD SUMMARY: [3H]epibatidine competition binding, rat α3β4 nAChRs expressed in HEK cells
Criterion: Ki strictly less than 20 µM. Met: Condition met. Not met: Condition not met.

// known answers, use as guide
| QUERY SMILES | CLASS NAME |
| --- | --- |
| CNc1ccccc1C(=O)OCC#Cc1cncc(OC[C@@H]2CCN2)c1 | Condition met |
| CN1CCC[C@H]1COc1cncc(C#CCCCCO)c1 | Condition met |
| OCCCCC#Cc1cncc(OC[C@@H]2CCN2)c1 | Condition met |
| CN1CCC[C@H]1COc1cncc(C#CCNC(=O)OC(C)(C)C)c1 | Condition not met |
| CN1CCC[C@H]1COc1cncc(C#CC(C)(C)O)c1 | Condition not met |

Now consider a different molecule.
Is 20 µM strictly greater than the molecule's reported Ki? molecule: CN1CCC[C@H]1COc1cncc(C#CCCCCBr)c1 Condition met

* * *

# TGT: human α4β2 nAChRs (Homo sapiens, UniProt P17787+P43681)
# Construct: expressed in transfected cells; the efflux text says only stably transfected cells
# METHOD SUMMARY: Inhibition of nicotine-stimulated 86Rb+ efflux, cells expressing human α4β2 nAChRs
# Format: cell-based
# PROTOCOL CONDITIONS: IC50 α4β2 nAChRs, 10 min Pretreatment, 10 min preincubation, then 100 μM nicotine; mean ± SEM of 3 to 7 experiments
pIC50: −log10 of the molar value.
MEASUREMENT LABEL: pIC50

So what does the record say about pIC50 for OCCCCC#Cc1cncc(OC[C@@H]2CCN2)c1 [Sazetidine-A] ? ~7.52

* * *

# TGT: human α4β2 nAChRs (Homo sapiens, UniProt P17787+P43681)
# Construct: the efflux text says only stably transfected cells
# METHOD SUMMARY: biochemical
MEASUREMENT LABEL: pKi
One number for each entry, as −log10 of the molar value.

Query for human α4β2 nAChRs (Homo sapiens, UniProt P17787+P43681): what pKi does the record show for OCCCCC#Cc1cncc(OC[C@@H]2CCN2)c1 ? 9.19

* * *

# TGT: rat α3β4 nAChRs (Rattus norvegicus, UniProt P04757+P12392)
# Construct: expressed in transfected cells; the efflux text says only stably transfected cells
# METHOD SUMMARY: Inhibition of nicotine-stimulated 86Rb+ efflux, cells expressing rat α3β4 nAChRs
# Format: cell-based
# PROTOCOL CONDITIONS: Acute Antagonist Potency (IC50(A), nM) α3β4, applied simultaneously with nicotine
Please provide measured IC50 for the entries that follow.

| QUERY SMILES | MEASURED RESULT |
| --- | --- |
| FCCCCC#Cc1cncc(OC[C@@H]2CCN2)c1 | 9400 nM |
| CN1CCC[C@H]1COc1cncc(C#CCCCCCCCCO)c1 | 4600 nM |

# ---- query compound ----
IC50 for OCCCCC#Cc1cncc(OC[C@@H]2CCN2)c1 ? > 10000 nM

* * *

Kindly state pKi for each of the entries shown.
# TGT: rat α4β2 nAChRs (Rattus norvegicus, UniProt P09483+P12390)
# Construct: expressed in transfected cells; host or cells: HEK cells (membrane homogenates)
# METHOD SUMMARY: [3H]epibatidine competition binding, rat α4β2 nAChRs expressed in HEK cells
# Method: Briefly, cultured cells at >80% confluence were removed from their flasks (80 cm^2) with a disposable cell scraper and placed in 10 ml of 50 mM Tris HCl buffer (pH 7.4, 4° C.). The cell suspension was centrifuged at 10,000×g for 5 min and the pellet was collected. […] The filter-retained radioactivity was measured by liquid scintillation counting. […] Data from saturation and competition binding assays were analyzed using Prism 4 (GraphPad Software, San Diego, Calif.). […]
Numbers only, as −log10 of the molar value.

Reference set, count: 2
| COMPOUND | TGT | pKi |
| --- | --- | --- |
| CNc1ccccc1C(=O)OCC#Cc1cncc(OC[C@@H]2CCN2)c1 [Sazetidine-B] | rat α4β2 nAChRs (Rattus norvegicus, UniProt P09483+P12390) | 9.66 |
| CN1CCC[C@H]1COc1cncc(C#CCNC(=O)OC(C)(C)C)c1 [ZW-97] | rat α4β2 nAChRs (Rattus norvegicus, UniProt P09483+P12390) | 8.85 |

# return pKi for each item in the list
1. CN1CCC[C@H]1COc1cncc(C#CCCCCO)c1 [ZW-101]
2. FCCCCC#Cc1cncc(OC[C@@H]2CCN2)c1 [ZW-104]
3. OCCCCC#Cc1cncc(OC[C@@H]2CCN2)c1 [Sazetidine-A]
4. CN1CCC[C@H]1COc1cncc(C#CCCCCBr)c1 [ZW-109]

9.17
9.68
9.39
8.85

* * *

# TGT: rat α3β4 nAChRs (Rattus norvegicus, UniProt P04757+P12392)
# Construct: expressed in transfected cells; the efflux text says only stably transfected cells
# METHOD SUMMARY: Inhibition of nicotine-stimulated 86Rb+ efflux, cells expressing rat α3β4 nAChRs
# Assay type: cell-based
# PROTOCOL CONDITIONS: read-out: IC50 α3β4 nAChRs, 10 min Pretreatment; 10 min preincubation, then 100 μM nicotine; mean ± SEM of 3 to 7 experiments
MEASUREMENT LABEL: IC50 (µM)
Give bare numbers, in µM.

Can you share its IC50? I mean this compound: CO[C@H]1CC=C2CCN3CCC4=C(CC(=O)OC4)[C@]23C1 [DHβE, dihydro-β-erythroidine] 130

* * *

# TGT: rat α4β2 nAChRs (Rattus norvegicus, UniProt P09483+P12390)
# Construct: expressed in transfected cells; host or cells: HEK cells (membrane homogenates)
# METHOD SUMMARY: [3H]epibatidine competition binding, rat α4β2 nAChRs expressed in HEK cells
# PROTOCOL CONDITIONS: example tables; species not given; read-out: Equilibrium binding affinity (Ki, nM) α4β2
Field: label. Allowed values: Y (Ki < 2 nM) or N (Ki >= 2 nM).

Completed entries (count: 5):
| COMPOUND | CLASS NAME |
| --- | --- |
| Cc1cc2n(c(=O)c1)CC1CNCC2C1 (stereo not shown) | Y |
| FCCCCC#Cc1cncc(OC[C@@H]2CCCN2)c1 | Y |
| CN1CCC[C@H]1COc1cncc(C#CC(C)(C)O)c1 | N |
| O=c1cc(CO)cc2n1CC1CNCC2C1 (stereo not shown) | N |
| CN1CCC[C@H]1COc1cncc(C#CCCCCF)c1 | Y |

Lab note: Ki threshold 2 nM. Does this compound come in strictly under it? CN1CCC[C@H]1COc1cncc(C#CCCCCCCCCO)c1 N

Likewise for CN1CCC[C@H]1COc1cncc(C#CCO)c1 ? Y

// next record CCCCC#Cc1cncc(OC[C@@H]2CCCN2C)c1 Y

Next compound: C#Cc1cncc(OC[C@@H]2CCCN2C)c1 Y

Same again, this time with CN1CCC[C@H]1COc1cncc(C#Cc2ccccc2)c1 Y
